Test: Half life in mouse plasma by HPLC analysis
Details: in vitro
MEASURED_ATTRIBUTE: half-life (min)
Express it in min; write the number only.

Inquiry: Requested read-out: half-life. Entry: `Cc1cc(Nc2nn(C3CC3)c3cnc(S(=O)(=O)N4CCC(OC(=O)CN(C)C)CC4)cc23)ccc1F.O=C(O)CC(O)(CC(=O)O)C(=O)O`
Reply text: 47

* * *

Experiment: Cytotoxicity in human HepG2 cells assessed as induction of cell killing
Assay type: cell-based
MEASURED_ATTRIBUTE: CC50 (µM)
Express it in µM; write the number only.

Inquiry: Requested read-out: CC50. Entry: `C=C1[C@H](CO)[C@@H](O)C[C@@H]1n1cnc2c(=O)[nH]c(N)nc21`
Reply text: 42.1

Inquiry: Requested read-out: CC50. Entry: `CC[C@@H](C)NS(=O)(=O)c1ccc(F)c(C(=O)Nc2ccc(F)c(F)c2)c1`
Reply text: 39.9

Inquiry: Requested read-out: CC50. Entry: C[C@H](Cn1cnc2c(N)ncnc21)OCP(=O)(O)O [TENOFOVIR ANHYDROUS]
Reply text: 15
